- Method description: protein stability index of a GFP-peptide fusion (yeast GPS) (PSI 1-4); higher = more stable; sorted into four equal gates, so the index is relative within each strain
- Test context: san1∆
Value kind: protein stability index
Keep the answer to the number alone.

Fill in the blank: the reported protein stability index of TVLADEFIAHRLGLIPL [RPB3] is ____.
2.96

Next entry: SSWQIYSDENDPSISNN [RRP4]
3.06

Next entry: PAHTKYMLIEEAASSNK [ITC1]
3.02
